Tested on: Cerebrospinal fluid
method: Drug level in rat cerebrospinal fluid at 3 mg/kg, iv; further: time not given here
Type: ADME, organism-based
Design: dose 3 mg/kg, route intravenous
setupConditions: in vivo, read-out: Drug uptake
attributeMeasured: concentration (nM)

These recorded examples may help you get a feel for the data.
moleculeSmiles | systemTested | scaleUnit | reading
O=C1O[C@]2(CC[C@H](C(=O)Nc3ncc(-c4cccc(CF)c4)cn3)CC2)c2cnccc21 | Cerebrospinal fluid | nM | 79
O=C1O[C@]2(CC[C@H](C(=O)Nc3ncc(-c4ccccc4F)cn3)CC2)c2ccncc21 | Cerebrospinal fluid | nM | 288
O=C1O[C@]2(CC[C@H](C(=O)Nc3ncc(-c4cccc(OCF)c4)cn3)CC2)c2ccncc21 | Cerebrospinal fluid | nM | 64

A: O=C1O[C@]2(CC[C@H](C(=O)Nc3ncc(-c4cccc(F)c4)cn3)CC2)c2ccncc21
B: O=C1O[C@]2(CC[C@H](C(=O)Nc3ncc(-c4cccc(OCF)c4)cn3)CC2)c2cnccc21
Smaller concentration value, A vs B ? # reply format: chosen label
B
(B: 95 nM, A: 308 nM)

---

Test system: Rattus norvegicus
method: Plasma concentration in rat at 3 mg/kg, iv; further: time not given here
Type: ADME, organism-based
Design: dose 3 mg/kg, route intravenous
setupConditions: in vivo
attributeMeasured: concentration (nM)

// known answers, use as guide
moleculeSmiles | reading
O=C1O[C@]2(CC[C@H](C(=O)Nc3ncc(-c4cccc(OCF)c4)cn3)CC2)c2ccncc21 | 1500
O=C1O[C@]2(CC[C@H](C(=O)Nc3ncc(-c4cccc(OCF)c4)cn3)CC2)c2cnccc21 | 2040
O=C1O[C@]2(CC[C@H](C(=O)Nc3ncc(-c4cccc(F)c4)cn3)CC2)c2ccncc21 | 3450

A: O=C1O[C@]2(CC[C@H](C(=O)Nc3ncc(-c4ccccc4F)cn3)CC2)c2ccncc21
B: O=C1O[C@]2(CC[C@H](C(=O)Nc3ncc(-c4cccc(CF)c4)cn3)CC2)c2cnccc21
Of A and B , whose reported concentration is the larger number? Returns: label corresponding to the selected item.
A

---

Tested on: LLC-PK1
method: Efflux ratio of permeability from […] side in human MDR1 gene transfected pig LLC-PK1 cells
Type: ADME, cell-based, Sus scrofa
attributeMeasured: Ratio

moleculeSmiles | Ratio
O=C1O[C@]2(CC[C@H](C(=O)Nc3ncc(-c4cccc(CF)c4)cn3)CC2)c2cnccc21 | 1.69
O=C1O[C@]2(CC[C@H](C(=O)Nc3ncc(-c4ccccc4F)cn3)CC2)c2ccncc21 | 1.11
O=C1O[C@]2(CC[C@H](C(=O)Nc3ncc(-c4cccc(OCF)c4)cn3)CC2)c2cnccc21 | 1.37
O=C1O[C@]2(CC[C@H](C(=O)Nc3ncc(-c4cccc(F)c4)cn3)CC2)c2ccncc21 | 1.41
O=C1O[C@]2(CC[C@H](C(=O)Nc3ncc(-c4cccc(OCF)c4)cn3)CC2)c2ccncc21 | 1.52

---

Test system: Brain
method: Drug level in rat brain at 3 mg/kg, iv; further: time not given here
Format: ADME, organism-based
Design: dose 3 mg/kg, route intravenous
setupConditions: in vivo, read-out: Drug uptake
attributeMeasured: concentration (nM)

Example compounds with recorded concentration:
moleculeSmiles | concentration (nM)
O=C1O[C@]2(CC[C@H](C(=O)Nc3ncc(-c4cccc(OCF)c4)cn3)CC2)c2ccncc21 | 150
O=C1O[C@]2(CC[C@H](C(=O)Nc3ncc(-c4cccc(CF)c4)cn3)CC2)c2cnccc21 | 370

I: O=C1O[C@]2(CC[C@H](C(=O)Nc3ncc(-c4cccc(OCF)c4)cn3)CC2)c2cnccc21
II: O=C1O[C@]2(CC[C@H](C(=O)Nc3ncc(-c4cccc(F)c4)cn3)CC2)c2ccncc21
Select one: I or II . Criterion: greater recorded concentration. Lab log: write the label of the selected item as the result.
II

---

method: Lipophilicity, Log D at pH 7.4
setupConditions: buffer
attributeMeasured: logD

moleculeSmiles | logD
O=C1O[C@]2(CC[C@H](C(=O)Nc3ncc(-c4cccc(F)c4)cn3)CC2)c2ccncc21 | 2.78
O=C1O[C@]2(CC[C@H](C(=O)Nc3ncc(-c4cccc(OCF)c4)cn3)CC2)c2cnccc21 | 2.75
O=C1O[C@]2(CC[C@H](C(=O)Nc3ncc(-c4ccccc4)cn3)CC2)c2ncccc21 | 2.71
O=C1O[C@]2(CC[C@H](C(=O)Nc3ncc(-c4ccccc4CF)cn3)CC2)c2cnccc21 | 2.54
O=C1O[C@]2(CC[C@H](C(=O)Nc3ncc(-c4ccccc4F)cn3)CC2)c2ccncc21 | 2.79
O=C1O[C@]2(CC[C@H](C(=O)Nc3ncc(-c4ccccc4)cn3)CC2)c2cnccc21 | 2.65
O=C1O[C@]2(CC[C@H](C(=O)Nc3ncc(-c4ccccc4OCF)cn3)CC2)c2cnccc21 | 2.71

I: O=C1O[C@]2(CC[C@H](C(=O)Nc3ncc(-c4ccccc4)cn3)CC2)c2ccccc21
II: O=C1O[C@]2(CC[C@H](C(=O)Nc3ncc(-c4cccc(F)c4)cn3)CC2)c2cccnc21
Endpoint returns whichever of I and II has the numerically higher logD. # answer = label of selected item
I

---

systemTested: Neuropeptide Y receptor type 5 (Homo sapiens, UniProt Q15761)
Sequence (Q15761 whole entry): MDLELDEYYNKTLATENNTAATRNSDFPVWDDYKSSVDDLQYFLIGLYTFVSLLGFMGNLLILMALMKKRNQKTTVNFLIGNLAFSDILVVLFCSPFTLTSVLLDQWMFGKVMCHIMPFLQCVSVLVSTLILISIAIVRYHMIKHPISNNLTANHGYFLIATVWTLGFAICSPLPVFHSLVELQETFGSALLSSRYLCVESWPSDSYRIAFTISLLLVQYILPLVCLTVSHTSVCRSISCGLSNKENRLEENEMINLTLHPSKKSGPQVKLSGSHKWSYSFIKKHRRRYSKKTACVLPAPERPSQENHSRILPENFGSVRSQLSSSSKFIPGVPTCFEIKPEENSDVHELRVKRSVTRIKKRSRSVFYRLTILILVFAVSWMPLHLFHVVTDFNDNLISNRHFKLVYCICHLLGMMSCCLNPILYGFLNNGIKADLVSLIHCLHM
method: Displacement of [125I]PYY from human recombinant NPY Y5 receptor expressed in mouse LMtk cells
Assay type: cell-based
pIC50: −log10 of the molar value.
attributeMeasured: pIC50

A: O=C1O[C@]2(CC[C@H](C(=O)Nc3ncc(-c4cccc(CF)c4)cn3)CC2)c2cccnc21
B: O=C1O[C@]2(CC[C@H](C(=O)Nc3ncc(-c4ccc(F)cc4)cn3)CC2)c2cccnc21
Returns: the label, A or B , whose recorded pIC50 is the lower number. API: response body contains the label of the selected item.
B
(B: 8.12, A: 8.64)

---

method: Lipophilicity, Log D at pH 7.4
setupConditions: buffer
attributeMeasured: logD

moleculeSmiles | logD
O=C1O[C@]2(CC[C@H](C(=O)Nc3ncc(-c4cccc(OCF)c4)cn3)CC2)c2ccncc21 | 2.71
O=C1O[C@]2(CC[C@H](C(=O)Nc3ncc(-c4ccccc4F)cn3)CC2)c2cnccc21 | 2.79
O=C1O[C@]2(CC[C@H](C(=O)Nc3ncc(-c4ccccc4)cn3)CC2)c2cccnc21 | 2.32
O=C1O[C@]2(CC[C@H](C(=O)Nc3ncc(-c4cccc(CF)c4)cn3)CC2)c2cnccc21 | 2.65

---

System: LLC-PK1
method: Efflux ratio of permeability from […] side in mouse mdr1a gene transfected pig LLC-PK1 cells
Format: ADME, cell-based, Sus scrofa
attributeMeasured: Ratio

moleculeSmiles | Ratio
O=C1O[C@]2(CC[C@H](C(=O)Nc3ncc(-c4cccc(OCF)c4)cn3)CC2)c2ccncc21 | 9.51
O=C1O[C@]2(CC[C@H](C(=O)Nc3ncc(-c4cccc(F)c4)cn3)CC2)c2ccncc21 | 7.78
O=C1O[C@]2(CC[C@H](C(=O)Nc3ncc(-c4cccc(CF)c4)cn3)CC2)c2cnccc21 | 7.9

1: O=C1O[C@]2(CC[C@H](C(=O)Nc3ncc(-c4cccc(OCF)c4)cn3)CC2)c2cnccc21
2: O=C1O[C@]2(CC[C@H](C(=O)Nc3ncc(-c4ccccc4F)cn3)CC2)c2ccncc21
# returns the entry with the larger Ratio; inputs 1 and 2 Refer to your chosen entry by its label in the reply.
1
(1: 8.23, 2: 4.43)

---

method: Ratio of drug level in rat brain to plasma at 3 mg/kg, iv
Format: ADME, organism-based
Design: dose 3 mg/kg, route intravenous
attributeMeasured: Kp

Sample records with Kp:
moleculeSmiles | Kp
O=C1O[C@]2(CC[C@H](C(=O)Nc3ncc(-c4cccc(CF)c4)cn3)CC2)c2cnccc21 | 0.3
O=C1O[C@]2(CC[C@H](C(=O)Nc3ncc(-c4ccccc4F)cn3)CC2)c2ccncc21 | 0.5
O=C1O[C@]2(CC[C@H](C(=O)Nc3ncc(-c4cccc(OCF)c4)cn3)CC2)c2cnccc21 | 0.37

I: O=C1O[C@]2(CC[C@H](C(=O)Nc3ncc(-c4cccc(F)c4)cn3)CC2)c2ccncc21
II: O=C1O[C@]2(CC[C@H](C(=O)Nc3ncc(-c4cccc(OCF)c4)cn3)CC2)c2ccncc21
Identify the item whose Kp is the smaller number: I or II // output: label of the selected item
II

Taken from ChEMBL document CHEMBL1155978.
